Give measured combination Emax for each item. Keep answers brief.
Test system: NCI-H2373 (Mesothelioma)
Test: combination Emax (second highest fraction inhibited in the dose matrix, 72 h); higher = more inhibition; extreme values may be limits of the assay
Give bare numbers.

INSERT INTO assay_data (compound, experimental_result) VALUES
  ('CN(CCO)CC[C@H](CSc1ccccc1)Nc1ccc(S(=O)(=O)NC(=O)c2ccc(N3CCC([C@@H](O)c4ccccc4-c4ccc(Cl)cc4)CC3)cc2)cc1S(=O)(=O)C(F)(F)F [AZD4320] + CCN(CCO)CCCOc1ccc2c(Nc3cc(CC(=O)Nc4cccc(F)c4)[nH]n3)ncnc2c1 [AZD2811] (first compound max 1 µM, 7x7, partner max 1 µM)', 0.125);

The record that follows has no combination Emax shown yet.
Need combination Emax, item Cn1cnc2c(F)c(Nc3ccc(Br)cc3Cl)c(C(=O)NOCCO)cc21 [Selumetinib] + C=CCn1c(=O)c2cnc(Nc3ccc(N4CCN(C)CC4)cc3)nc2n1-c1cccc(C(C)(C)O)n1 [AZD1775] (first compound max 10 µM, partner max 1 µM)
0.342

---

System: SCC-4 (Oral Cavity Carcinoma);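 further: after 72 h of two-drug dosing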
Assay: Bliss excess, mean over the matrix (fraction); higher = more synergy
Assign class by Bliss excess: not lower than -0.04 means Fulfilled; lower than -0.04 means Not fulfilled.

INSERT INTO measurements (compound, group) VALUES
  ('COc1cccc(OCCCN)c1-c1cc(Nc2cnc(C#N)cn2)n[nH]1 [Prexasertib] + Cc1cc2ncnn2cc1Nc1ncc2c(n1)n(C1CCOCC1)c(=O)n2C [AZD7648] (first compound max 1 µM, 7x7, partner max 10 µM)', 'Fulfilled');

API: above_or_equal(metric=Bliss excess, cutoff=-0.04) for item Cc1cc2ncnn2cc1Nc1ncc2c(n1)n(C1CCOCC1)c(=O)n2C [AZD7648] + O=C(c1cc(Cc2n[nH]c(=O)c3ccccc23)ccc1F)N1CCN(C(=O)C2CC2)CC1 [Olaparib] (first compound max 10 µM, 7x7, partner max 10 µM)
Not fulfilled

API: above_or_equal(metric=Bliss excess, cutoff=-0.04) for item CN(CCO)CC[C@H](CSc1ccccc1)Nc1ccc(S(=O)(=O)NC(=O)c2ccc(N3CCC([C@@H](O)c4ccccc4-c4ccc(Cl)cc4)CC3)cc2)cc1S(=O)(=O)C(F)(F)F [AZD4320] + C[C@@H](Nc1cc(F)cc(F)c1)c1cc(C(=O)N(C)C)cc2c(=O)cc(N3CCOCC3)oc12 [AZD8186] (first compound max 1 µM, 7x7, partner max 3 µM)
Not fulfilled

API: above_or_equal(metric=Bliss excess, cutoff=-0.04) for item COc1cccc(OCCCN)c1-c1cc(Nc2cnc(C#N)cn2)n[nH]1 [Prexasertib] + C[C@@H]1COCCN1C2=NC(=NC(=C2)C3(CC3)[S@](=N)(=O)C)C4=C5C=CNC5=NC=C4 [AZD6738] (first compound max 1 µM, 7x7, partner max 10 µM)
Fulfilled

API: above_or_equal(metric=Bliss excess, cutoff=-0.04) for item CCN(CCO)CCCOc1ccc2c(Nc3cc(CC(=O)Nc4cccc(F)c4)[nH]n3)ncnc2c1 [AZD2811] + O=C(c1cc(Cc2n[nH]c(=O)c3ccccc23)ccc1F)N1CCN(C(=O)C2CC2)CC1 [Olaparib] (first compound max 1 µM, 7x7, partner max 10 µM)
Not fulfilled

API: above_or_equal(metric=Bliss excess, cutoff=-0.04) for item NC1(C(=O)N[C@@H](CCO)c2ccc(Cl)cc2)CCN(c2ncnc3[nH]ccc23)CC1 [Capivasertib] + C[C@@H]1COCCN1C2=NC(=NC(=C2)C3(CC3)[S@](=N)(=O)C)C4=C5C=CNC5=NC=C4 [AZD6738] (first compound max 10 µM, 7x7, partner max 10 µM)
Not fulfilled

API: above_or_equal(metric=Bliss excess, cutoff=-0.04) for item CN(CCO)CC[C@H](CSc1ccccc1)Nc1ccc(S(=O)(=O)NC(=O)c2ccc(N3CCC([C@@H](O)c4ccccc4-c4ccc(Cl)cc4)CC3)cc2)cc1S(=O)(=O)C(F)(F)F [AZD4320] + C[C@@H]1COCCN1C2=NC(=NC(=C2)C3(CC3)[S@](=N)(=O)C)C4=C5C=CNC5=NC=C4 [AZD6738] (first compound max 1 µM, 7x7, partner max 10 µM)
Not fulfilled

Hey, just so you know, these numbers are from the supplement of paper PMC11061612.
